Recorded protein stability index by entry
B1: BRF1 (parent)
chain: CTACGSVLEDNIIVSEVQFVESSG

Variants of: B1
Experiment: protein stability index of a GFP-peptide fusion (GPS, HEK-293T) (PSI 1-6); higher = more stable;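 further: lentivirally expressed fusions sorted by FACS into six bins by GFP to DsRed ratio, PSI derived from sequencing read proportions per bin multiplied by bin number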
Conditions: c terminus: a fixed tail appended

| Mutation name | protein stability index |
| --- | --- |
| I12S | 3.95 |
| C1H | 3.6 |
| I12W | 2.39 |
| E16N | 2.9 |
| D10T | 1.79 |
| S22D | 3.7 |
| V17F | 2.56 |
| I13S | 4.05 |
| S22W | 2.66 |
| E9F | 2.67 |
| V20H | 3.23 |
| F19P | 4.2 |
| G24L | 3.01 |
| T2F | 2.12 |
| F19R | 4.42 |
| C4H | 4.04 |
| F19L | 3.49 |
| E9K | 3.55 |
| N11K | 4.01 |
| V7G | 2.8 |
| V20M | 2.55 |
| C4M | 3.88 |
| F19E | 4.27 |
| E21K | 2.94 |
| G24Y | 2.89 |
| D10L | 3.29 |
| S6P | 2.79 |
| S6N | 2.5 |
| G5I | 2.76 |
| E9D | 3.55 |
| G24P | 3.28 |
| S22T | 2.33 |
| E16A | 2.66 |
| S15A | 3.65 |
| D10E | 3.38 |
| S15I | 1.36 |
| V14D | 4.33 |
| V7H | 2.58 |
| N11I | 1.14 |
| N11Q | 2.6 |
| S22H | 3.06 |
| T2H | 3 |
| I13P | 4.25 |
| V7P | 3.64 |
| C4F | 2.78 |
| I12N | 4.8 |
